Origin of measurements: paper PMC9482650

- ASSAYED_SYSTEM: T1, SNTG1, Q9NSN8
- T1 sequence (Q9NSN8 52-150, limits assumed, looked up): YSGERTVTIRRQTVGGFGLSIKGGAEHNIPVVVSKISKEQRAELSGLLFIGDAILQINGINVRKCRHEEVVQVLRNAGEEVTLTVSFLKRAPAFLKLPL
- PROCEDURE_SUMMARY: holdup assay
- Parameters: key: below the threshold = too weak to quantify, mostly under pKd 3.1 to 4
- EXPERIMENTAL_CONDITIONS: plain residues with an end cap or a label only (N-terminal biotin on a linker: ado-ado)
MEASUREMENT_KIND: pKd
One number for each entry.

>  <BINDER>
AAVENKVTDL [PLXNB1, O43157]

>  <pKd>
3.74

$$$$
>  <BINDER>
RQKEVRESKC [SCN8A, Q9UQD0]

>  <pKd>
3.77

$$$$
>  <BINDER>
DTKNYKQTSV [CRIPT, Q9P021]

>  <pKd>
4.12

$$$$
>  <BINDER>
LESTTVGTSV [KARS1, Q15046]

>  <pKd>
3.7

$$$$

Prompt line: Name the recorded pKd of the item EDGESWEYQI [TRPV6, Q9H1D0] in your answer.
Response line: 3.82
